- Tested on: HCI-002 (organoid from a triple-negative breast cancer xenograft)
- test.protocol: CTG-3D luminescence at 96 h relative to day-0 seeding control (ratio to day 0); higher = more growth / less cytotoxicity; PDxO 3D drug screen, 96 h, CTG-3D normalised to day-0 seeding control.
- assay.setup: 100 µM; days in culture: 91
Kindly return yes if reported CTG-3D luminescence at 96 h is no lower than 0.03; return no if it is lower.

Record excerpt, results attached:
{"molecule": "O=C(O)C1(C(=O)O)CCC1.[NH2-].[NH2-].[Pt+2]", "classification": "yes"}
{"molecule": "COc1cc2c(Oc3ccc4[nH]c(C)cc4c3F)ncnc2cc1OCCCN1CCCC1", "classification": "no"}
{"molecule": "CCN1CCN(Cc2ccc(Nc3ncc(F)c(-c4cc(F)c5nc(C)n(C(C)C)c5c4)n3)nc2)CC1", "classification": "no"}
{"molecule": "CS(=O)(=O)c1ccc(C(=O)Nc2ccc(Cl)c(-c3ccccn3)c2)c(Cl)c1", "classification": "yes"}

Query: Check this molecule for CTG-3D luminescence at 96 h at or above 0.03: CN(Cc1cnc2nc(N)nc(N)c2n1)c1ccc(C(=O)N[C@@H](CCC(=O)O)C(=O)O)cc1 [methotrexate]
Response: yes

Query: Reported CTG-3D luminescence at 96 h at or above 0.03? "CCN(c1cc(C#CCN2CCOCC2)cc(C(=O)NCc2c(C)cc(C)[nH]c2=O)c1C)[C@H]1CC[C@H](N(C)CCOC)CC1"
Response: yes

Query: Evaluate "C/C=C1\NC(=O)[C@H]2CSSCC/C=C/[C@H](CC(=O)N[C@H](C(C)C)C(=O)N2)OC(=O)[C@H](C(C)C)NC1=O" : CTG-3D luminescence at 96 h at minimum 0.03?
Response: no

Query: Could you please find out whether "CC(C)(C(=O)NCC(F)(F)C(F)(F)F)C(=O)N[C@@H]1C(=O)Nc2ccccc2-c2ccccc21" has CTG-3D luminescence at 96 h that meets 0.03 or exceeds it?
Response: yes

Query: Exam item: decide whether the reported CTG-3D luminescence at 96 h for "Cc1nc(-c2cn3c(n2)-c2ccc(-c4cnn(C(C)(C)C(N)=O)c4)cc2OCC3)n(C(C)C)n1" is at least 0.03.
Response: no

Query: Is CTG-3D luminescence at 96 h at least 0.03? Consider "CC(=O)O[C@H]1C(=O)[C@@]2(C)[C@H]([C@H](OC(=O)c3ccccc3)[C@]3(O)C[C@H](OC(=O)[C@H](O)[C@@H](NC(=O)c4ccccc4)c4ccccc4)C(C)=C1C3(C)C)[C@]1(OC(C)=O)CO[C@@H]1C[C@@H]2O"
Response: yes

Query: Hi team, for "NC(=O)c1cccc2cn(-c3ccc([C@@H]4CCCNC4)cc3)nc12" , is the recorded CTG-3D luminescence at 96 h at or above 0.03?
Response: no

Query: I'd appreciate it if you could say whether "O=C(c1ccc(F)c(F)c1Nc1ccc(I)cc1F)N1CC(O)([C@@H]2CCCCN2)C1" has CTG-3D luminescence at 96 h at least equal to 0.03.
Response: no

###

- Tested on: HCI-002
- test.protocol: CTG-3D luminescence at 96 h relative to day-0 seeding control (ratio to day 0); higher = more growth / less cytotoxicity; PDxO 3D drug screen, 96 h, CTG-3D normalised to day-0 seeding control.
- assay.setup: 0.1 µM; days in culture: 191
Entries and their CTG-3D luminescence at 96 h values follow.
Could you respond with only the numeric value?

Query: What value of CTG-3D luminescence at 96 h has been recorded for this entry: "Cc1nc(-c2cn3c(n2)-c2ccc(-c4cnn(C(C)(C)C(N)=O)c4)cc2OCC3)n(C(C)C)n1"
Response: 2.13

Query: # get_value(readout='CTG-3D luminescence at 96 h', item= "C/C=C1\NC(=O)[C@H]2CSSCC/C=C/[C@H](CC(=O)N[C@H](C(C)C)C(=O)N2)OC(=O)[C@H](C(C)C)NC1=O" )
Response: -0.0636

Query: What does the data say about its CTG-3D luminescence at 96 h? Entry: "C=CCn1c(=O)c2cnc(Nc3ccc(N4CCN(C)CC4)cc3)nc2n1-c1cccc(C(C)(C)O)n1"
Response: 2.3

Query: Consider the compound shown here: "CS(=O)(=O)c1ccc(C(=O)Nc2ccc(Cl)c(-c3ccccn3)c2)c(Cl)c1" What is its recorded CTG-3D luminescence at 96 h?
Response: 3.23

Query: Name the recorded CTG-3D luminescence at 96 h for "CC[C@H](NC(=O)[C@H](C)NC)C(=O)N1C[C@@H](O)C[C@H]1Cc1c(-c2[nH]c3cc(F)ccc3c2C[C@@H]2C[C@H](O)CN2C(=O)[C@H](CC)NC(=O)[C@H](C)NC)[nH]c2cc(F)ccc12" .
Response: 1.73

Query: Which CTG-3D luminescence at 96 h is reported for this compound? "Cc1cc(Nc2ncc(Cl)c(Nc3ccccc3S(=O)(=O)C(C)C)n2)c(OC(C)C)cc1C1CCNCC1"
Response: 2.41

Query: // query CTG-3D luminescence at 96 h value for entry "C[C@@H]1COCCN1c1cc(C2([S@](C)(=N)=O)CC2)nc(-c2cc[nH]c3nccc2-3)n1"
Response: 2.66
